Could you please report measured pKi for the items listed next?
measurement-target: human NK3 receptor (Homo sapiens, UniProt P29371)
Construct: expressed in transfected cells; host or cells: HEK293 cells, transiently transfected; membranes
Sequence (P29371 1-465): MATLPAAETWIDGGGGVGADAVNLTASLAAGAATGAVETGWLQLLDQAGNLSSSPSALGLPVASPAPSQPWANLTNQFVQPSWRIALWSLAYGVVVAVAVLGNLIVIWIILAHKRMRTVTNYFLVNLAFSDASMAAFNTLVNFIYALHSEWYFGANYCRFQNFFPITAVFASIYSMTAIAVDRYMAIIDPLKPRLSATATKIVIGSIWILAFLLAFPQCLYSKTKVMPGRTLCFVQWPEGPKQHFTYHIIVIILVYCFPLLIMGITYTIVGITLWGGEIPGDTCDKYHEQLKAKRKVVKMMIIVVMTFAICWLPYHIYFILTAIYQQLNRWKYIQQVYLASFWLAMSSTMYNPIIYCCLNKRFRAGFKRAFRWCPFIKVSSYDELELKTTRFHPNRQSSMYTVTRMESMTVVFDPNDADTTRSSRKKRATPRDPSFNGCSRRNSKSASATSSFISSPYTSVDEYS
protocol-description: [3H]SR142801 competition binding assay
stated-conditions: hNK3 Ki, [3H]SR142801 displacement, membranes of HEK293 cells transiently expressing recombinant human NK3 receptor
One number for each entry, as −log10 of the molar value.

Recorded results for 5 compounds are shown here.
CN1C(=O)OC2(CCN(CCC(C(=O)NCc3ccc(Cl)cc3Cl)c3ccc(Cl)c(Cl)c3)CC2)c2cc(F)ccc21 (centres unmarked); 8.68
O=C1Nc2ccc(F)cc2C2(CCN(CCC(C(=O)NCc3ccc(OC(F)(F)F)cc3)c3ccc(Cl)c(Cl)c3)CC2)O1 (centres unmarked); 7.16
COc1cc(CN(C)C(=O)C(CCN2CCC3(CC2)OC(=O)N(C)c2ccc(F)cc23)c2ccc(Cl)c(Cl)c2)ccc1OC(F)F (centres unmarked); 8.59
CN1C(=O)OC2(CCN(CCC(C(=O)NCc3ccccc3OC(F)(F)F)c3ccc(Cl)c(Cl)c3)CC2)c2cc(F)ccc21 (centres unmarked); 8.19
CN(Cc1ccc(C(F)(F)F)cc1)C(=O)C(CCCN1CCC2(CC1)OC(=O)Nc1ccc(F)cc12)c1ccc(Cl)c(Cl)c1 (centres unmarked); 7.19

Below are 3 compounds. Give each one its pKi.
1. CN(Cc1cccc(C(F)(F)F)c1)C(=O)C(CCN1CCC2(CC1)OC(=O)N(C)c1ccc(F)cc12)c1ccc(Cl)c(Cl)c1 (centres unmarked)
2. O=C1Nc2ccc(F)cc2C2(CCN(CCC(C(=O)NCc3ccc(Cl)cc3Cl)c3ccc(F)cc3)CC2)O1 (centres unmarked)
3. CN1C(=O)OC2(CCN(CCC(C(=O)NCc3cccc(OC(F)F)c3)c3ccc(Cl)c(Cl)c3)CC2)c2cc(F)ccc21 (centres unmarked)

[8.80, 7.08, 8.55]

Below are 2 compounds. Give each one its pKi.
1. CN(Cc1ccc(F)cc1)C(=O)C(CCCN1CCC2(CC1)OC(=O)Nc1ccc(F)cc12)c1ccc(Cl)c(Cl)c1 (centres unmarked)
2. CN(Cc1cccc(Cl)c1)C(=O)C(CCN1CCC2(CC1)OC(=O)Nc1ccc(F)cc12)c1ccc(Cl)c(Cl)c1 (centres unmarked)

1: 7.16; 2: 8.28

---

measurement-target: human NK3 receptor (Homo sapiens)
Construct: expressed in transfected cells; host or cells: HEK293 cells, transiently transfected; membranes
protocol-description: [3H]SR142801 competition binding assay
stated-conditions: hNK3 Ki, [3H]SR142801 displacement, membranes of HEK293 cells transiently expressing recombinant human NK3 receptor
Structures can show the parent of a compound that is named as a salt.
Heads up, the class ranges for Ki are one (below 7 nM), two (7 nM to below 60 nM), three (60 nM or more)

Which bin should I file O=C1Nc2ccc(F)cc2C2(CCN(CCCC(C(=O)NCc3ccccc3OC(F)(F)F)c3ccc(Cl)c(Cl)c3)CC2)O1 (stereo not drawn) [Example 118] under?
three

Do the same for CN(Cc1ccccc1Cl)C(=O)C(CCN1CCC2(CC1)OC(=O)N(C)c1ccc(F)cc12)c1ccc(Cl)c(Cl)c1 (stereo not drawn) [Example 44] please
one

Do the same for COc1ccc(CN(C)C(=O)C(CCN2CCC3(CC2)OC(=O)N(C)c2ccc(F)cc23)c2ccc(Cl)c(Cl)c2)cc1F (stereo not drawn) [Example 99] please
one

Do the same for CN(Cc1ccccc1)C(=O)C(CCN1CCC2(CC1)OC(=O)Nc1ccc(F)cc12)c1ccc(Cl)c(Cl)c1 (stereo not drawn) [Example 1, hydrochloride] please
two

Do the same for Cc1ccc(CN(C)C(=O)C(CCN2CCC3(CC2)OC(=O)Nc2ccc(F)cc23)c2ccc(F)cc2)cc1 (stereo not drawn) [Example 56] please
three

Do the same for CCN(Cc1ccccc1)C(=O)C(CCN1CCC2(CC1)OC(=O)N(C)c1ccc(F)cc12)c1ccc(Cl)c(Cl)c1 (stereo not drawn) [Example 29] please
one
